tested on: HepG2 cell line; conditions: human, 72 h
recorded.metric: CC50 (nM)
Express your answer in nM, writing the number without its unit.

What value of CC50 has been recorded for this entry: COc1cccc2c1C(=O)c1c(O)c3c(c(O)c1C2=O)C[C@@](O)(C(=O)CO)C[C@@H]3O[C@H]1C[C@H](N)[C@H](O)[C@H](C)O1 [Doxorubicin, reference compound]
200

* * *

Experiment: In vivo pharmacokinetics in the mouse after oral administration
Conditions: female, Swiss; whole blood of mouse, oral 25 mg/kg, n = 4
Procedure: Finally, the in vivo pharmacokinetic parameters were determined in the mouse, after oral administration at 25 mg/kg in a mixture of 5% Tween 80 and 95% of 0.5% carboxymethylcellulose in water, by using the QuEChERS method.[32] Monolix Lixoft software was used to analyze the data by a noncompartmental model to fit pharmacokinetics parameters.[33] […] acetonitrile with 0.1% formic acid. […] The […] decrease to 2% (B); 2.6 < t < 4 min, 2% (B). Carbamazepine, oxazepam, warfarine and diclofenac are […]
recorded.metric: AUC(0-inf) (µg·h/mL)
Your answer should be a plain number; it is taken to be in µg·h/mL.

Fill in the blank: the reported AUC(0-inf) of O=c1[nH]c2c([N+](=O)[O-])cc(Br)cc2cc1Cl [Compound 12] is ____.
123

* * *

# Shift of the E° value versus the comparator compound values compiled below
assay: Redox potentials by cyclic voltammetry in DMSO; conditions: 13 vs hit 2; 9, hit 1 and 2 vs pharmacophore; 10 vs 9; 5 vs 2

Here is how some compounds turned out for Shift of the E° value versus the comparator compound.
O=c1[nH]c2c([N+](=O)[O-])cc(Br)cc2cc1Br ... +0.03 V
COc1ccc2cc(C(F)(F)F)cc([N+](=O)[O-])c2n1 ... −0.36 V
O=c1ccc2cc(Br)cc([N+](=O)[O-])c2[nH]1 ... +0.14 V
O=c1ccc2cc(C(F)(F)F)cc([N+](=O)[O-])c2[nH]1 ... +0.15 V
O=c1[nH]c2c([N+](=O)[O-])cccc2cc1Br ... +0.09 V

Moving on to another compound below.
So what does the record say about Shift of the E° value versus the comparator compound for O=C(O)c1ccc(-c2cc3cc(Br)cc([N+](=O)[O-])c3[nH]c2=O)cc1 ?
+0.16 V

* * *

assay: In vivo pharmacokinetics in the mouse after oral administration; conditions: female, Swiss, plasma; mouse, oral 25 mg/kg; read-out: Plasmatic half life (converted)
recorded.metric: half-life at 24 h (h)
Record the value in h, omitting the unit from your answer.

Consider the molecule shown here: O=c1[nH]c2c([N+](=O)[O-])cc(Br)cc2cc1Cl [Compound 12] What is its recorded half-life at 24 h?
2.9

* * *

experiment: in vitro; settings: human, Cytotoxicity HepG2 CC50
recorded.metric: CC50 at 72 h

Use these answered entries as a reference point.
O=c1ccc2cc(Br)cc([N+](=O)[O-])c2[nH]1 ... 28 to 41 µM
O=c1[nH]c2c([N+](=O)[O-])cc(Br)cc2cc1Br ... 17 µM

Value lookup for CC50 at 72 h; key = O=c1ccc2cc(C(F)(F)F)cc([N+](=O)[O-])c2[nH]1
28 to 41 µM

* * *

assay: In vivo pharmacokinetics in the mouse after oral administration; details: female, Swiss; whole blood of mouse, oral 25 mg/kg, n = 4
recorded.metric: Tmax

State the recorded Tmax for this entry: O=c1[nH]c2c([N+](=O)[O-])cc(Br)cc2cc1Cl
1.5 h

Ref: paper PMC7153024
